Recorded inhibition at 0.1 µM, one value per entry.
Biological target: farnesyl protein transferase (FPTase) (Homo sapiens, UniProt P49354+P49356)
Assay: In vitro assay for inhibition of farnesyl protein transferase
Type: biochemical
Conditions: test dose of 10^−7 M

N#Cc1ccc(Cn2cnnc2CN(Cc2ccc(F)cc2F)C(=O)c2cccc(Cl)c2)cc1; ≥ 10%
Cc1nnc(CN(Cc2ccc(F)cc2F)C(=O)c2ccc3ccccc3n2)n1-c1ccc(C#N)cc1; ≥ 10%
N#Cc1ccc(Cn2cnnc2CN(CCc2ccc(Cl)cc2)C(=O)c2ccc3ccccc3n2)cc1; ≥ 10%
N#Cc1ccc(Cn2cnnc2CN(Cc2ccc(F)cc2F)C(=O)c2ccc(-c3cc(Cl)cc(Cl)c3)o2)cc1; ≥ 10%
N#Cc1ccc(Cn2cnnc2CN(Cc2ccc(F)cc2F)C(=O)/C=C/c2cccc(C(F)(F)F)c2)cc1; ≥ 10%

N#Cc1ccc(Cn2cnnc2CN(CCc2ccc(Br)cc2)C(=O)c2ccc3c(c2)OCO3)cc1 has a reported inhibition at 0.1 µM of ≥ 10%

N#Cc1ccc(Cn2cnnc2CN(Cc2ccc(F)cc2F)C(=O)c2ccc3ccccc3n2)cc1 yielded inhibition at 0.1 µM of ≥ 10%

In plain terms, Cc1ccccc1-c1cccc(C(=O)N(Cc2ccc(F)cc2F)Cc2nncn2Cc2ccc(C#N)cc2)c1 has a documented inhibition at 0.1 µM of ≥ 10%

The reported inhibition at 0.1 µM of the compound C/C(=C\c1ccccc1)C(=O)N(Cc1ccc(F)cc1F)Cc1nncn1Cc1ccc(C#N)cc1 was ≥ 10%

inhibition at 0.1 µM reported for this compound COc1ccc2oc(C(=O)N(Cc3ccc(F)cc3F)Cc3nncn3Cc3ccc(C#N)cc3)cc2c1 : ≥ 10%

Per the record, Cc1cccc(/C=C/C(=O)N(Cc2ccc(F)cc2F)Cc2nncn2Cc2ccc(C#N)cc2)c1 has inhibition at 0.1 µM of ≥ 10%

Noted for N#Cc1ccc(Cn2cnnc2CN(Cc2ccc(F)cc2F)C(=O)C2=Cc3ccccc3OC2)cc1 : its inhibition at 0.1 µM reads ≥ 10%

Memo: Cc1cccc(C(=O)N(Cc2ccc(F)cc2F)Cc2nncn2Cc2ccc(C#N)cc2)c1 , reported inhibition at 0.1 µM: ≥ 10%

Noted for N#Cc1ccc(Cn2cnnc2CN(Cc2ccc(F)cc2F)C(=O)c2nc3ccccc3nc2O)cc1 : its inhibition at 0.1 µM reads ≥ 10%

Just so you know, measured inhibition at 0.1 µM for N#Cc1ccc(Cn2cnnc2CN(CCc2ccc(Br)cc2)C(=O)c2cccc(Br)c2)cc1 came out at ≥ 10%

get_value(item= N#Cc1ccc(Cn2cnnc2CN(Cc2ccc(F)cc2F)C(=O)c2ccc(-c3cccc(C(F)(F)F)c3)o2)cc1 , readout=inhibition at 0.1 µM) returns ≥ 10%

----------
Test system: Respiratory Syncytial Virus
Experiment: In vitro screening for activity against Respiratory Syncytial Virus (MTT assay, protection against cytopathology)
Assay type: cell-based
Conditions: human respiratory syncytial virus, 168 h; RSV-infected HeLa cells, seven days after infection, MTT; read-out: IC50 (antiviral activity)
readout.name: IC50 (µM)
Give a bare numeral; the unit µM is implied.

COC(=O)c1ccc(Cn2cnnc2CN(CCc2ccc(Br)cc2)Cc2ccc3ccccc3n2)cc1; 0.0259
Brc1ccc(CCN(Cc2ccc3ccccc3n2)Cc2nncn2Cc2ccc(Br)cc2)cc1; 0.15

Lookup result for Clc1ccc(Cn2cnnc2CN(CCc2ccc(Br)cc2)Cc2ccc3ccccc3n2)cc1 ; measured IC50: 0.0931

N#Cc1ccc(Cn2cnnc2CN(CCc2ccc(Br)cc2)Cc2ccc3cccc(O)c3n2)cc1 yielded IC50 of 0.16

response.value for N#Cc1ccc(Cn2cnnc2CN(CCc2ccc(Cl)cc2Cl)Cc2ccc3ccccc3n2)cc1 (field: IC50) = 0.118

// field: IC50; key: Cc1ccc(CCN(Cc2ccc3ccccc3n2)Cc2nncn2Cc2ccc(C#N)cc2)cc1 ; value = 0.0881
